- System: H1650 cells
Recorded Metric: viability
Be sure to follow the number with its unit.

State, for H1650 cells, measured viability of the compound listed here: `COc1cc2ncnc(Nc3ccc(F)c(Cl)c3)c2cc1OCCCN1CCOCC1`
52%

###

- Assay System: recombinant human HDAC8 (Homo sapiens)
- Sequence (Q9BY41 whole entry): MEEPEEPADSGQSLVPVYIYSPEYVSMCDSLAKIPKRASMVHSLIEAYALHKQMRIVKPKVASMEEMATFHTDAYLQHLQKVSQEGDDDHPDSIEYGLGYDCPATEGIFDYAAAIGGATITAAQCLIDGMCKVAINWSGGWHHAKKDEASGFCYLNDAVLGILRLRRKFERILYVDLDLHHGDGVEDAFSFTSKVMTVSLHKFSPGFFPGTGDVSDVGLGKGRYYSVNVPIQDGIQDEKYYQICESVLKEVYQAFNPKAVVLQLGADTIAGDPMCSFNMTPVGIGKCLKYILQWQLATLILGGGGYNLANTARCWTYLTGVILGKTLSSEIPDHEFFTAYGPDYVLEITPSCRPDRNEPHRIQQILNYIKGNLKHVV
- Test: biochemical
Recorded Metric: pIC50
In textbook form, pIC50 equals minus log to base ten of the concentration in mol/L.

Read off the recorded pIC50 for `Fc1ccc(C(c2ccc(F)cc2)N2CCN(C/C=C/c3ccccc3)CC2)cc1`
5.26

###

- Test: in vivo
- Condition Set: NOD SCID γ (NSG), mouse
Recorded Metric: concentration at 4 h (µM)
# unit: µM | format: bare number

Read off the recorded concentration at 4 h for COc1cc2ncnc(Nc3ccc(F)c(Cl)c3)c2cc1OCCCN1CCOCC1 [gefitinib]
0.032

###

- Assay System: recombinant human HDAC1 (Homo sapiens, UniProt Q13547)
- Sequence (Q13547 whole entry): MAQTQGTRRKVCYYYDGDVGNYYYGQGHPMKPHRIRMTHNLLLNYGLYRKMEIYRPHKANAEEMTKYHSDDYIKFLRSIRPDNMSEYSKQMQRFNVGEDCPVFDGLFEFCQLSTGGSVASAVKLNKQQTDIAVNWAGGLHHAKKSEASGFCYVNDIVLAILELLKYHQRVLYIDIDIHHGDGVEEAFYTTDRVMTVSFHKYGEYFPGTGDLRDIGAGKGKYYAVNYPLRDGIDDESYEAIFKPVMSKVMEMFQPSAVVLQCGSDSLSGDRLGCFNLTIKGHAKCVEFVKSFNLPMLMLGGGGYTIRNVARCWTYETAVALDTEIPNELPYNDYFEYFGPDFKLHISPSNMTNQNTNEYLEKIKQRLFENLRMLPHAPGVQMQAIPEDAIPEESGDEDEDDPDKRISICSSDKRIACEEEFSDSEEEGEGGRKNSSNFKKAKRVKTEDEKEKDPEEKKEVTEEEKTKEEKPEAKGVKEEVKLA
- Test: biochemical
Recorded Metric: pIC50
In textbook form, pIC50 equals minus log to base ten of the concentration in mol/L.

Read off the recorded pIC50 for `Fc1ccc(C(c2ccc(F)cc2)N2CCN(C/C=C/c3ccccc3)CC2)cc1`
6.55

###

The next entries give measured viability for H820 cells.
Be sure to follow the number with its unit.

# Compound Structure String, viability
data = [
    ("COc1cc2ncnc(Nc3ccc(F)c(Cl)c3)c2cc1OCCCN1CCOCC1", "66%"),
]

Here's the next entry for you.
Read off the recorded viability for `Fc1ccc(C(c2ccc(F)cc2)N2CCN(C/C=C/c3ccccc3)CC2)cc1`
89%

###

- Assay System: recombinant human HDAC3 (Homo sapiens)
- Sequence (O15379 whole entry): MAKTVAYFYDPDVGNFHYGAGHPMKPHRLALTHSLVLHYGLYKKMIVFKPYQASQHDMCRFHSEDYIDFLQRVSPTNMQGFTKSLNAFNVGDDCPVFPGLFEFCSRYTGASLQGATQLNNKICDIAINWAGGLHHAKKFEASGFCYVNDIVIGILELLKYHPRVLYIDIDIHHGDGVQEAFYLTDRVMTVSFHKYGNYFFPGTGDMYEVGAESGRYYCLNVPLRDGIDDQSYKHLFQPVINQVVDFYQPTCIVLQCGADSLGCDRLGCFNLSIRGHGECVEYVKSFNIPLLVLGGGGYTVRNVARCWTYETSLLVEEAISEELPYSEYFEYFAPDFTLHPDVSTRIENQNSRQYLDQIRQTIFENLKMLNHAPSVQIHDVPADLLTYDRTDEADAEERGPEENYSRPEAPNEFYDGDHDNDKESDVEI
- Sequence (Q9Y618 395-489 partner limits assumed): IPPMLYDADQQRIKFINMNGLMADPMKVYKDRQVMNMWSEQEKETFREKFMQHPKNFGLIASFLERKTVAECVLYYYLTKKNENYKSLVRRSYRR
- Test: biochemical
Recorded Metric: pIC50
In textbook form, pIC50 equals minus log to base ten of the concentration in mol/L.

State, for recombinant human HDAC3 (Homo sapiens), measured pIC50 of the compound listed here: `Fc1ccc(C(c2ccc(F)cc2)N2CCN(C/C=C/c3ccccc3)CC2)cc1`
6.52
